system: Bacillus cereus
Readout kind: MIC

entry_smiles=CC(C)C[C@H](NC(=O)[C@@H](N)Cc1ccccc1)C(=O)NCC(=O)N[C@H](C(=O)N[C@H](C(=O)N[C@@H](Cc1ccccc1)C(=O)N[C@@H](CCCCN)C(=O)N[C@@H](CO)C(=O)N[C@@H](C)C(=O)N[C@@H](CO)C(=O)N[C@@H](CCCCN)C(=O)N[C@H](C(=O)N[C@@H](Cc1ccccc1)C(=O)N1CCC[C@H]1C(=O)N[C@@H](C)C(=O)N[C@H](C(=O)N[C@@H](Cc1ccccc1)C(=O)NCC(=O)N[C@@H](CCCCN)C(=O)N[C@H](C(=O)O)C(C)C)C(C)C)C(C)C)C(C)C)C(C)C readout_kind=MIC endpoint_result="≥ 120 µM"
